Values were extracted from ChEMBL document CHEMBL6071170.

# ASSAY_SYSTEM: UniProt:Q05397
# ASSAY_PROTOCOL: Inhibition of human FAK by FRET assay
MEASURED_ATTRIBUTE: IC50 (nM)
The answer is to be given in nM; state only the numeric part.

Inquiry: Query: IC50; subject: CNC(=O)c1ccccc1Nc1cc(Nc2ccc(N3CCN(CC(=O)N[C@H](C(=O)N4C[C@H](O)C[C@H]4C(=O)N[C@@H](C)c4ccc(-c5scnc5C)cc4)C(C)(C)C)CC3)cc2OC)ncc1C(F)(F)F
Reply text: 1.58

---

# ASSAY_SYSTEM: Focal adhesion kinase 1 (Homo sapiens)
# ASSAY_PROTOCOL: Inhibition of N-terminal his-tagged human (1 to 422 residues) FAK
MEASURED_ATTRIBUTE: IC50 (nM)
The answer is to be given in nM; state only the numeric part.

Inquiry: Short answer please: IC50, Focal adhesion kinase 1 (Homo sapiens), entry OCC[N+]12CN3CN(CN(C3)C1)C2
Reply text: 50

---

# ASSAY_SYSTEM: Proto-oncogene tyrosine-protein kinase ROS (Homo sapiens)
# Sequence (P08922 whole entry): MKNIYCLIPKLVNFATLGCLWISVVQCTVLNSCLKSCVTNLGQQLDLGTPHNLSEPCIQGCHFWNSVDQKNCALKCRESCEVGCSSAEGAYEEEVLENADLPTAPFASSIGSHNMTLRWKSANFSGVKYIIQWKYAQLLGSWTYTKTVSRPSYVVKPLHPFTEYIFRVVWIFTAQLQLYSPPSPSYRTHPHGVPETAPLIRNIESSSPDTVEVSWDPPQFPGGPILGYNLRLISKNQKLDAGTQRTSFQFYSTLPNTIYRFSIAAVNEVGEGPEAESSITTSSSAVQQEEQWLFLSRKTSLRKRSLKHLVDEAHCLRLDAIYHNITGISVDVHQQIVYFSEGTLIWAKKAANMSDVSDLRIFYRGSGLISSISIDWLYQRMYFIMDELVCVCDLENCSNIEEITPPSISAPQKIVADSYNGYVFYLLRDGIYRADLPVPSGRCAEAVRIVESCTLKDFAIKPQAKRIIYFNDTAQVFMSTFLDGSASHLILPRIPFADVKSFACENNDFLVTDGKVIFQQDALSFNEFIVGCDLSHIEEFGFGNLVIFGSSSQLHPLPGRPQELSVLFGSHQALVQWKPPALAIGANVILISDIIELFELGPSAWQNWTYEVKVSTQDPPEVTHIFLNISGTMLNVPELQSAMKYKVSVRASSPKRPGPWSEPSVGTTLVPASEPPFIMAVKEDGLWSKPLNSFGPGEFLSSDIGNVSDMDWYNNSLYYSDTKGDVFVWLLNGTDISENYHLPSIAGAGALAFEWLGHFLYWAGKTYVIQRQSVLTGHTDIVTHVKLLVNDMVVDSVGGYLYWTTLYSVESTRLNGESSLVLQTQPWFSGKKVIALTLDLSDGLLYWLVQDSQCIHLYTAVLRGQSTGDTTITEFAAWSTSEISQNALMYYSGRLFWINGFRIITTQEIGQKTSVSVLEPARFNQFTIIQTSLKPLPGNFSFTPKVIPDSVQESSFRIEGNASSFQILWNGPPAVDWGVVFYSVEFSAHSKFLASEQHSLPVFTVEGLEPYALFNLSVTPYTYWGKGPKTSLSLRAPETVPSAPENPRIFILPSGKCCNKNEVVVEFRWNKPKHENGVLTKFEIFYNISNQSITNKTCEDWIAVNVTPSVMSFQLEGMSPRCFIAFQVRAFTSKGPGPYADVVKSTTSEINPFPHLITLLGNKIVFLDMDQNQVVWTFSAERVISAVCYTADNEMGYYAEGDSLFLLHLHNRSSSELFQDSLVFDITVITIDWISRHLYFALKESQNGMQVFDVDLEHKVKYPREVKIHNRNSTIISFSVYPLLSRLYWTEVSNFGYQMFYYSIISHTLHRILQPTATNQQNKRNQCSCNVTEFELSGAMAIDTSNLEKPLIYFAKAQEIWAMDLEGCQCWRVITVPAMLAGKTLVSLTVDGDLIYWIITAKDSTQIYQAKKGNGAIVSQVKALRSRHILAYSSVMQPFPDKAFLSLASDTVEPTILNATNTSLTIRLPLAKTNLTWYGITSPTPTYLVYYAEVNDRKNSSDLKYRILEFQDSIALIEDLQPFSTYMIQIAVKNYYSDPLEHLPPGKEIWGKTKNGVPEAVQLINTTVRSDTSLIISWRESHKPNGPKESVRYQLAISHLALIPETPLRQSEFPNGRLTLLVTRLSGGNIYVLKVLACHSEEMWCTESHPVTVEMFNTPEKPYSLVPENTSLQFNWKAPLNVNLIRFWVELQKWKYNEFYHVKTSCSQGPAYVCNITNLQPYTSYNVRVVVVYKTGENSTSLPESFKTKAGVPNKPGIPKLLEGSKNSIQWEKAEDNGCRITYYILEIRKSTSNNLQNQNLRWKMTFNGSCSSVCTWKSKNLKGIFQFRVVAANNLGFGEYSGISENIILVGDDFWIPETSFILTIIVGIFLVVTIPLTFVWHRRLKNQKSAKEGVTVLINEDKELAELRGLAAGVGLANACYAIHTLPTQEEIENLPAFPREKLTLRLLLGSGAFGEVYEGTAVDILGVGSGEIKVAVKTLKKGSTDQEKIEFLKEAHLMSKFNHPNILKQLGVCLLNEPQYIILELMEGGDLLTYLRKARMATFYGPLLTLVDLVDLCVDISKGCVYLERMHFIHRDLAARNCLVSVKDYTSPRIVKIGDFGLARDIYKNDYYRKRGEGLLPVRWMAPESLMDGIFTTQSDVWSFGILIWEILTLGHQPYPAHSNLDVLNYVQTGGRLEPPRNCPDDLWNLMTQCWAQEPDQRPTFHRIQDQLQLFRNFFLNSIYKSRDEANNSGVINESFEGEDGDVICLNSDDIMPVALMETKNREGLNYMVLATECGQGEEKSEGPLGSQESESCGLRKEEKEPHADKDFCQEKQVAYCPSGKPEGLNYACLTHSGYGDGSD
MEASURED_ATTRIBUTE: IC50
In your response, put the unit directly after the numeric value.

Inquiry: Query: IC50; subject: Cc1cc(Nc2ncc(Cl)c(Nc3ccccc3S(=O)(=O)C(C)C)n2)c(OC(C)C)cc1C1=CCN(C2CCOCC2)CC1 [APG-2449]
Reply text: 0.81 nM

---

# ASSAY_SYSTEM: Serine/threonine-protein kinase PLK1 (Homo sapiens, UniProt P53350)
# Sequence (P53350 whole entry): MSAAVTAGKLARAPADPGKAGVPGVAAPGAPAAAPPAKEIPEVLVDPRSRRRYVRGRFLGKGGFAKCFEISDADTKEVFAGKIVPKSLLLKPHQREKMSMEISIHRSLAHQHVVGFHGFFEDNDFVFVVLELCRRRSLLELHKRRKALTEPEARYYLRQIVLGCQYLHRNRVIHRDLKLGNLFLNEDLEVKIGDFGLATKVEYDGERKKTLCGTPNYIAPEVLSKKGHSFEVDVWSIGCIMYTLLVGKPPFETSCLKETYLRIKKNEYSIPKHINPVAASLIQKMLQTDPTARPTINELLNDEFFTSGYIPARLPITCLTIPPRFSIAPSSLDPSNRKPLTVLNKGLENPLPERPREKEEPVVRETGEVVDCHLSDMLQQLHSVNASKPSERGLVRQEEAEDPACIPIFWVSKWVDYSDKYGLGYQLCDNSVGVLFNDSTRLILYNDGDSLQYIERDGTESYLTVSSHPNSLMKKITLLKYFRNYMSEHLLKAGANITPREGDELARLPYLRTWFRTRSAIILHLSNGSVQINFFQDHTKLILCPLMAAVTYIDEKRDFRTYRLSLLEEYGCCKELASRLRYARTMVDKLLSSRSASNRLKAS
MEASURED_ATTRIBUTE: IC50 (nM)
The answer is to be given in nM; state only the numeric part.

Inquiry: Query: IC50; subject: O=C(CSC1Nc2ccccc2C(=O)N1c1ccccc1)N1CCN(c2ccccc2Cl)CC1 (stereo unspecified)
Reply text: 79

---

# ASSAY_SYSTEM: Protein-tyrosine kinase 2-beta (Homo sapiens, UniProt Q14289)
# Sequence (Q14289 whole entry): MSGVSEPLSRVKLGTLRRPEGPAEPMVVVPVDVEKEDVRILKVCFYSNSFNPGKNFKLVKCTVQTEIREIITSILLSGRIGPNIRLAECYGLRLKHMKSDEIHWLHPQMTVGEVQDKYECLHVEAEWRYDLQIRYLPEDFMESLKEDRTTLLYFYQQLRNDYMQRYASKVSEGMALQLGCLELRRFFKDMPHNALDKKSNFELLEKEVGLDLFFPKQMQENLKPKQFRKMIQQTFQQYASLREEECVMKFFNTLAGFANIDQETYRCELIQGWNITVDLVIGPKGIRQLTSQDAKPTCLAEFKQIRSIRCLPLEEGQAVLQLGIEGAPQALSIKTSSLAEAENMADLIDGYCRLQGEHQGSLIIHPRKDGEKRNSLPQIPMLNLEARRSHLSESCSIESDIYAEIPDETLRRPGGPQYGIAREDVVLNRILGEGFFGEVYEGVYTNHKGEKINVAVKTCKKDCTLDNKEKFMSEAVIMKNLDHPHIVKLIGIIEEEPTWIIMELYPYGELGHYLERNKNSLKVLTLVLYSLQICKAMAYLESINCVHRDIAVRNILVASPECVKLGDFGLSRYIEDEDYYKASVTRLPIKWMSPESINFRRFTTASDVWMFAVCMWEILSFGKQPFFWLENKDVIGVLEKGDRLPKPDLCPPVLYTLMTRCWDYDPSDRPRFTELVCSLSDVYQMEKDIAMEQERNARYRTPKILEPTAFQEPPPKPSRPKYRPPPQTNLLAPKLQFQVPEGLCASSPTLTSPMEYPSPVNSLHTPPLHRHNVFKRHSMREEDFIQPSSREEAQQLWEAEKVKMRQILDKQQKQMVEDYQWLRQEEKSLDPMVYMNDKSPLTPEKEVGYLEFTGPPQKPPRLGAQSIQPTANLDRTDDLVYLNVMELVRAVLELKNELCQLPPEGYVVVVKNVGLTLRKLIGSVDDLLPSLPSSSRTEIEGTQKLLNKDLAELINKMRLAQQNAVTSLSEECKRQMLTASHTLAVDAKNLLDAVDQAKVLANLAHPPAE
# ASSAY_PROTOCOL: Inhibition of PYK2 (unknown origin) by KinomeScan assay
MEASURED_ATTRIBUTE: IC50
In your response, put the unit directly after the numeric value.

Inquiry: Short answer please: IC50, Protein-tyrosine kinase 2-beta (Homo sapiens, UniProt Q14289), entry CNC(=O)c1ccccc1Nc1cc(Nc2cc(C)c(C3CCNCC3)cc2OC(C)C)ncc1C(F)(F)F
Reply text: 623 nM

---

# ASSAY_SYSTEM: Focal adhesion kinase 1 (Homo sapiens, UniProt Q05397)
# Sequence (Q05397 whole entry, the tested form may be a part): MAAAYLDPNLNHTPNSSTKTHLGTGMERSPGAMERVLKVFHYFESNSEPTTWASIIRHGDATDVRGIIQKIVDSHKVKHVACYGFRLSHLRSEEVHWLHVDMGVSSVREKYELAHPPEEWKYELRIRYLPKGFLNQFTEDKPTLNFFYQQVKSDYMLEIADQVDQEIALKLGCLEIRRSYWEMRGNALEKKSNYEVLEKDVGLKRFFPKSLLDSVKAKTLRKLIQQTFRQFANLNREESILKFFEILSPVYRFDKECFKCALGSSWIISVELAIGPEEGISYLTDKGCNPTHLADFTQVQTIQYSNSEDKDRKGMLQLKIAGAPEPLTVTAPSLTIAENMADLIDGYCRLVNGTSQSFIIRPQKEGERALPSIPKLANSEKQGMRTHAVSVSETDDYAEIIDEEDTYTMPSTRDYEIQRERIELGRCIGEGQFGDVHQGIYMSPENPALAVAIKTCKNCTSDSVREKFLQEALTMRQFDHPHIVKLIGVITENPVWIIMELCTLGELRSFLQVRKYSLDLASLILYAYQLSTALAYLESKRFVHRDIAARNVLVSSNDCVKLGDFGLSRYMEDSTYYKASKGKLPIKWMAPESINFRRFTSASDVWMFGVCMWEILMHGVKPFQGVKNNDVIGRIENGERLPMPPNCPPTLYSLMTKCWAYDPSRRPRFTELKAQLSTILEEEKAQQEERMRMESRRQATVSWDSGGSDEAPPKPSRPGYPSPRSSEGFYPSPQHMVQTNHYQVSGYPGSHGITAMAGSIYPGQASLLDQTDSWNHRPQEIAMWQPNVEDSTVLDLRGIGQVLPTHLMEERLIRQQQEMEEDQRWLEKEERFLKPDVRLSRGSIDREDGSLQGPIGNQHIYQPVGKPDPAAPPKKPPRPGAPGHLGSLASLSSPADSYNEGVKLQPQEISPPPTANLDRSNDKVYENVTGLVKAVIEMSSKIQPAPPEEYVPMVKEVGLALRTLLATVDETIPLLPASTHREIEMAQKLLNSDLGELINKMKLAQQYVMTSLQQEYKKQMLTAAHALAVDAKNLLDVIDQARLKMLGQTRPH
# ASSAY_PROTOCOL: Inhibition of FAK (unknown origin)
Below, each of the compounds is paired with its reported pIC50 value.
The quantity pIC50 is defined as the negative base-10 logarithm of the molar concentration.

Inquiry: Query: pIC50; subject: Cc1cc(Nc2ncc(Cl)c(Nc3ccccc3S(=O)(=O)C(C)C)n2)c(OC(C)C)cc1C1=CCN(C2CCOCC2)CC1 [APG-2449]
Reply text: 8.27

Inquiry: What do we get for CNC(=O)c1ccccc1Nc1nc(Nc2ccc(N3CCN(C)CC3)cc2)nc2[nH]ccc12 ?
Reply text: 7.72

Inquiry: What do we get for CNC(=O)c1ccccc1Nc1cc(Nc2cc(C)c(C3CCN(CCCCCCNC(=O)COc4cccc5c4C(=O)N(C4CCC(=O)NC4=O)C5=O)CC3)cc2OC(C)C)ncc1C(F)(F)F (stereo not given) ?
Reply text: 7.59

Next:
Inquiry: Query: pIC50; subject: O=C(CSC1Nc2ccccc2C(=O)N1c1ccccc1)N1CCN(c2ccccc2Cl)CC1 (stereo not given)
Reply text: 7.07

Inquiry: What do we get for O=C1CCc2cccc(Oc3nc(Nc4ccc(N5CCN(C(=S)SCCCN6CCOCC6)CC5)cc4)ncc3C(F)(F)F)c21 ?
Reply text: 7.35

---

# ASSAY_PROTOCOL: Oral bioavailability in mouse
# Type: ADME, organism-based
# EXPERIMENTAL_SETUP: in vivo
MEASURED_ATTRIBUTE: bioavailability (%)
The answer is to be given in %; state only the numeric part.

Inquiry: Query: bioavailability; subject: C=CC(=O)NCCNc1c(NCc2ccc(Nc3ncc(Cl)c(Nc4ccccc4C(=O)NC)n3)cc2)c(=O)c1=O
Reply text: 21

---

# ASSAY_SYSTEM: Focal adhesion kinase 1 (Homo sapiens, UniProt Q05397)
# ASSAY_PROTOCOL: Inhibition of FAK (unknown origin) by FRET analysis
MEASURED_ATTRIBUTE: pIC50
The quantity pIC50 is defined as the negative base-10 logarithm of the molar concentration.

Inquiry: Query: pIC50; subject: CNC(=O)c1ccccc1Nc1cc(Nc2ccc(NC(=O)CCCCCCC(=O)NO)cc2)ncc1Cl
Reply text: 6.88

---

# ASSAY_SYSTEM: Protein-tyrosine kinase 2-beta (Homo sapiens, UniProt Q14289)
# ASSAY_PROTOCOL: Inhibition of PYK2 (unknown origin)
MEASURED_ATTRIBUTE: IC50

Inquiry: Query: IC50; subject: CNC(=O)c1ccc(Nc2ncc(C(F)(F)F)c(NCc3nccnc3N(C)S(C)(=O)=O)n2)cc1 [DEFACTINIB]
Reply text: 600 pM

---

# ASSAY_SYSTEM: Focal adhesion kinase 1 (Homo sapiens, UniProt Q05397)
# ASSAY_PROTOCOL: Inhibition of FAK (unknown origin) by HTRF assay
MEASURED_ATTRIBUTE: pIC50
The quantity pIC50 is defined as the negative base-10 logarithm of the molar concentration.

Inquiry: Query: pIC50; subject: Clc1cccc(Cn2ccc3cnc(Nc4ccc(N5CCNCC5)cc4)nc32)c1
Reply text: 8.00

---

# Tested on: BXPC-3
# ASSAY_PROTOCOL: Antiproliferative activity against human BXPC-3 cells
# Format: functional, cell-based
MEASURED_ATTRIBUTE: pIC50
The quantity pIC50 is defined as the negative base-10 logarithm of the molar concentration.

Inquiry: Short answer please: pIC50, BXPC-3, entry Cn1cc(-c2nn3cc(-c4ccco4)nc3s2)c2ccccc21
Reply text: 5.98

---

# ASSAY_PROTOCOL: Plasma stability in human assessed as half life by LC-MS/MS analysis
# Type: ADME, cell-free
MEASURED_ATTRIBUTE: half-life

Inquiry: Query: half-life; subject: CN(c1ncccc1CNc1nc(Nc2ccc(N3CCN(CCCCCCC(=O)NCCNc4cccc5c4C(=O)N(C4CCC(=O)NC4=O)C5=O)CC3)cc2)ncc1C(F)(F)F)S(C)(=O)=O (stereo unspecified)
Reply text: > 3.25 h
